Recorded pIC50, one value per entry.
system: 857933-349-R-J2-PDC complex spheroid viability; experiment: Anticancer human tumor 857933-349-R-J2-PDC patient-derived colon adenocarcinoma cell line growth inhibition [POLQ]; conditions: curve of first compound; second compound 0.0316 µM;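 further: spheroids exposed to compounds for seven days before readout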
Note: pIC50 values are expressed as the negative base-10 logarithm of concentration in M.

• CC1COCCN1c1cc(-c2ccnn2C)c2ccnc(-c3ccn[nH]3)c2n1 (stereo not given) + Nc1ccc(C#CCN(C(=O)Cc2ncc(C(F)(F)F)cc2C(F)(F)F)c2ccc(F)cc2)nn1 = 6.09
• COc1cc(C2c3cc4c(cc3C(OC3OC5COC(C)OC5C(O)C3O)C3COC(=O)C23)OCO4)cc(OC)c1O (stereo not given) + Nc1ccc(C#CCN(C(=O)Cc2ncc(C(F)(F)F)cc2C(F)(F)F)c2ccc(F)cc2)nn1 = 5.89
• CCc1c2c(nc3ccc(O)cc13)-c1cc3c(c(=O)n1C2)COC(=O)[C@]3(O)CC + Cc1cccc(N(C)C(=O)C2C(O)CCN2c2nc(C)cc(C(F)(F)F)c2C#N)c1 = 7.67

Could you now consider this next compound?
Q: Name the recorded pIC50 for CC1COCCN1c1cc(-c2ccnn2C)c2ccnc(-c3ccn[nH]3)c2n1 (stereo not given) + COC1C(OC(N)=O)C(O)C(Oc2ccc3c(O)c(NC(=O)c4ccc(O)c(CC=C(C)C)c4)c(=O)oc3c2C)OC1(C)C .
Ans: 6.68
